# Assay: NCI Yeast Anticancer Drug Screen. Data for the rad14 strain (AID 159)
# Experimental setup: S. cerevisiae rad14 strain growth inhibition; at 33.0 µM
This is part of a sample that, as a whole, favours compounds with a hit. Of some 79,000 tested, about 15% had one in any assay. The source made the active and inactive calls. No stated cut-off is given here; in the data, active means growth inhibition above about 70%; inactive means the rest.
Answer with one of the outcomes given here: yes for active, no for inactive

## Task How did this test come out for `O=Cc1coc2ccccc2c1=O` ?
## Result no

## Task How did this test come out for CC(=O)OCC1OC(O[C@H]2C=C[C@@H](C(=O)OCc3ccccc3)n3c(=O)n(-c4ccccc4)c(=O)n32)C(OC(C)=O)C(OC(C)=O)C1OC(C)=O (stereo partly specified) ?
## Result no

## Task How did this test come out for Nc1nc(F)nc2c1ncn2C1OC(COP(=O)(O)O)C(O)C1O (stereo unspecified) ?
## Result no

## Task How did this test come out for `COc1ccc(N=Nc2ccc3oc(=O)c(C(=O)Nc4ccccc4)cc3c2)cc1` ?
## Result yes

## Task How did this test come out for `COC(=O)c1oc([N+](=O)[O-])c(Cl)c1Cl` ?
## Result yes

## Task How did this test come out for `CN(C)c1ccc(N=Nc2ccccn2)cc1` ?
## Result yes

Where do the numbers come from? From PubChem BioAssay (NCI).
